measurement description: Cytotoxicity against human HepG2 cells assessed as reduction in cell viability after 48 hrs by WST-1 assay
Type: toxicity, cell-based
value type: CC50 at 48 h

If you can, please state the reported CC50 at 48 h value of `N#Cc1cccnc1N1CCN(c2ccc(C(=O)NC3CC3)cn2)CC1` . > 100 µM

If you can, please state the reported CC50 at 48 h value of `O=C(NC1CC1)c1ccc(N2CCN(c3ccccc3C(F)(F)F)CC2)nc1` . > 100 µM

If you can, please state the reported CC50 at 48 h value of `COc1ccc(CN2CCN(c3ccc(C(=O)NC4CC4)cn3)CC2)cc1` . > 100 µM

If you can, please state the reported CC50 at 48 h value of `O=C(NC1CC1)c1ccc(N2CCN(Cc3ccccc3)CC2)nc1` . 12.1 µM

If you can, please state the reported CC50 at 48 h value of `O=C(NC1CC1)c1ccc(N2CCN(c3cccc(O)c3)CC2)nc1` . 36.2 µM

If you can, please state the reported CC50 at 48 h value of `O=C(NC1CC1)c1ccc(N2CCN(c3ncccc3[N+](=O)[O-])CC2)nc1` . 51.2 µM

If you can, please state the reported CC50 at 48 h value of `Cc1ccccc1N1CCN(c2ccc(C(=O)NC3CC3)cn2)CC1` . > 100 µM

If you can, please state the reported CC50 at 48 h value of `O=C(NC1CC1)c1ccc(N2CCN(c3ncccc3C(F)(F)F)CC2)nc1` . > 100 µM

If you can, please state the reported CC50 at 48 h value of `O=C(NC1CC1)c1ccc(N2CCN(c3ccccn3)CC2)nc1` . > 100 µM

If you can, please state the reported CC50 at 48 h value of `O=C(NC1CC1)c1ccc(N2CCN(c3ccccc3)CC2)nc1` . > 100 µM

If you can, please state the reported CC50 at 48 h value of `O=C(NC1CC1)c1ccc(N2CCN(c3cnccn3)CC2)nc1` . > 100 µM
